// provenance: ChEMBL document CHEMBL1201862

Recorded GI50 for the following compounds
# Test system: SNB-75
# TEST NAME: NCI tumour cell line growth inhibition, 48 h
Active and inactive are the calls of the source. Rule as the data show it: active = GI50 up to about 1.1 µM and inactive = higher.
PROPERTY NAME: GI50

- COMPOUND: "CC1C[C@]2(C)C(=O)Nc3ccccc3[C@@H]2Nc2ccccc21 (stereo partly specified)"
  PROPERTY NAME: "GI50"
  REPORTED: "46.3 µM (inactive)"
- COMPOUND: "CC(C)(C)OC(=O)[C@H]1CCC(=S)N1Cc1ccccc1"
  PROPERTY NAME: "GI50"
  REPORTED: "> 100 µM (inactive)"
- COMPOUND: "CN(C)c1ccc(/C=N/c2ccc(Oc3ccc(Cl)cc3)c(Cl)c2)cc1"
  PROPERTY NAME: "GI50"
  REPORTED: "13.1 µM (inactive)"
- COMPOUND: "CCOC(=O)C1=CN2C(=N[C@H]3CCCC[C@@H]32)NC1=O"
  PROPERTY NAME: "GI50"
  REPORTED: "> 100 µM (inactive)"
- COMPOUND: "O=c1onc2n1-c1cc(Cl)ccc1C(=S)N1CSCC21 (stereo unspecified)"
  PROPERTY NAME: "GI50"
  REPORTED: "31.3 µM (inactive)"
- COMPOUND: "Oc1c(C(O)c2ccccn2)ccc2ccccc12 (stereo unspecified)"
  PROPERTY NAME: "GI50"
  REPORTED: "24.4 µM (inactive)"

---

Recorded GI50 for the following compounds
# System: SF-539
# TEST NAME: NCI tumour cell line growth inhibition, 48 h
Calls of active or inactive are those of the source. Rule as the data show it: active = GI50 up to about 1.1 µM and inactive = higher.

- COMPOUND: "Oc1ccc2occ3c2c1CCC3"
  GI50: "> 100 µM (inactive)"
- COMPOUND: "CN(C)CCNc1ccc2nnn3c4ccc(Cl)cc4c(=O)c1c23"
  GI50: "4.78 µM (inactive)"
- COMPOUND: "COC1C(O)CC(OC2C(C)OC(Oc3cc(O)c4c(O)c5c(cc4c3)C[C@@H]([C@H](OC)C(=O)[C@@H](O)[C@@H](C)O)[C@H](OC3CC(OC4CC(OC6CC(C)(O)C(O)C(C)O6)C(O)C(C)O4)C(O)C(C)O3)C5=O)CC2OC(C)=O)OC1C (some centres undefined)"
  GI50: "38.6 µM (inactive)"
- COMPOUND: "O=C(Nc1ccccc1)c1cc(S(=O)(=O)N2CCNNC2=O)c(S)cc1Cl"
  GI50: "> 100 µM (inactive)"
- COMPOUND: "CCOC(=O)C1(C/C=C\\CBr)CCCC1=O (centres undefined)"
  GI50: "24.6 µM (inactive)"
- COMPOUND: "Cc1cc2c(=O)cc(-c3ccc(Cl)c(Cl)c3)oc2c(C(=O)O)c1C"
  GI50: "> 100 µM (inactive)"
- COMPOUND: "CC[C@]12C=CCN3CC[C@@]4(c5cc(N=O)c(OC)cc5N(C)[C@H]4[C@@](O)(C(=O)OC)[C@@H]1OC(C)=O)[C@@H]32"
  GI50: "27.6 µM (inactive)"
- COMPOUND: "Oc1c(C(O)c2ccccn2)ccc2ccccc12 (centres undefined)"
  GI50: "87.3 µM (inactive)"
- COMPOUND: "O/N=N/c1ccc2ccccc2n1"
  GI50: "> 100 µM (inactive)"
